# Test System: c-Met kinase (Homo sapiens)
# Construct: recombinant N-terminal 6×His-tagged c-Met kinase domain construct expressed from baculovirus; 6xHis (N); made in house
# Sequence (P08581 1078-1345 limits assumed): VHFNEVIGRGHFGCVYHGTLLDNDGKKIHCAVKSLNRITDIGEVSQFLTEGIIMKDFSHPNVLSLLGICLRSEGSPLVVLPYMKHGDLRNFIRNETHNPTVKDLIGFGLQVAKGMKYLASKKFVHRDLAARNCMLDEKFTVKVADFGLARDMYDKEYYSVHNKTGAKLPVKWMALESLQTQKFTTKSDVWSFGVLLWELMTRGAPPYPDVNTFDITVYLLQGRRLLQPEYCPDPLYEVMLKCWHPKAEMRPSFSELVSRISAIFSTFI
# Procedure Summary: c-Met kinase assay (33P incorporation into Poly(Glu-Tyr))
# Assay type: biochemical
# Settings: 500 nM test compound
Measurement Name: inhibition at 0.5 µM (%)
Record the value in %, omitting the unit from your answer.

Enquiry: Consider the molecule shown here: CCCCCCC#Cc1ccc2c(c1)NC(=O)/C2=C\c1[nH]c2c(c1CCC(=O)O)C(=O)CCC2 What is its recorded inhibition at 0.5 µM?
Return: 18.2

Enquiry: Entry O=C(O)CCc1c(/C=C2\C(=O)Nc3cc(Br)ccc32)[nH]c2c1C(=O)CCC2 please
Return: 3.3

Enquiry: Request: CN1CCN(C(=O)CCc2c(/C=C3\C(=O)Nc4ccc(NS(=O)(=O)c5ccccc5)cc43)[nH]c3c2C(=O)CCC3)CC1
Return: 9.2

Enquiry: Now the same for CCOC(=O)CCc1c(/C=C2\C(=O)Nc3ccc(NS(=O)(=O)c4ccc5ccccc5c4)cc32)[nH]c2c1C(=O)CCC2
Return: 19

Enquiry: For CCCCCCC#Cc1ccc2c(c1)/C(=C/c1[nH]c3c(c1CCC(=O)O)C(=O)CCC3)C(=O)N2 then?
Return: 13.7

Enquiry: Now this one: CCOC(=O)CCc1c(/C=C2\C(=O)Nc3ccc(NC(=O)Nc4ccccc4)cc32)[nH]c2c1C(=O)CCC2
Return: -0.3

Enquiry: Can you check CN1CCN(C(=O)CCc2c(/C=C3\C(=O)Nc4ccc(S(=O)(=O)N5CCCC5)cc43)[nH]c3c2C(=O)CCC3)CC1 next?
Return: 10

Enquiry: Proceed to O=C(O)CCc1c(/C=C2\C(=O)Nc3ccc(Br)cc32)[nH]c2c1C(=O)CCC2
Return: 19.3

Enquiry: Next up: CC(=O)c1c(C)[nH]c(/C=C2\C(=O)Nc3ccc(S(=O)(=O)N4CCc5ccccc54)cc32)c1CCC(=O)O
Return: 51.1

Enquiry: Okay, and CC(=O)Nc1ccc2c(c1)/C(=C/c1[nH]c3c(c1CCC(=O)O)C(=O)CCC3)C(=O)N2 ?
Return: 19.7

Enquiry: Also Nc1ccccc1NC(=O)CCc1c(/C=C2\C(=O)Nc3ccc(NS(=O)(=O)c4ccccc4)cc32)[nH]c2c1C(=O)CCC2 ?
Return: 9.6

Enquiry: Next molecule: O=C(O)CCc1c(/C=C2\C(=O)Nc3cc(-c4cc(F)cc(F)c4)ccc32)[nH]c2c1C(=O)CCC2
Return: 26.7

Enquiry: Moving on to the next molecule: O=C(O)CCc1c(/C=C2\C(=O)Nc3ccc(NS(=O)(=O)c4ccccc4)cc32)[nH]c2c1C(=O)CCCC2
Return: 0.2

Enquiry: Subsequent entry: CCOC(=O)CCc1c(/C=C2\C(=O)Nc3ccc(NS(=O)(=O)c4cc(Cl)cc(Cl)c4)cc32)[nH]c2c1C(=O)CCC2
Return: 11.2

Enquiry: And for COc1cc(-c2ccc3c(c2)NC(=O)/C3=C\c2[nH]c3c(c2CCC(=O)O)C(=O)CCC3)ccc1O ?
Return: 27.3

Enquiry: Try this molecule too: O=C(O)CCc1c(/C=C2\C(=O)Nc3ccc(NC(=O)c4ccccc4)cc32)[nH]c2c1C(=O)CCC2
Return: 14.4

Enquiry: Also need C=CS(=O)(=O)c1ccc2c(c1)/C(=C/c1[nH]c3c(c1CCC(=O)O)C(=O)CCC3)C(=O)N2 , thanks.
Return: 22.3

Enquiry: Please give the result for CCN(CC)CCNC(=O)CCc1c(/C=C2\C(=O)Nc3ccc(S(=O)(=O)N4CCc5ccccc54)cc32)[nH]c(C)c1C(C)=O too.
Return: 56.3

Enquiry: Field entry: CCOC(=O)CCc1c(/C=C2\C(=O)Nc3ccc(NC(=O)c4ccc(F)cc4)cc32)[nH]c2c1C(=O)CCC2
Return: 21.5

Enquiry: Now consider CCOC(=O)CCc1c(/C=C2\C(=O)Nc3ccc(S(=O)(=O)Cc4c(Cl)cccc4Cl)cc32)[nH]c2c1C(=O)CC(C)(C)C2 and answer again.
Return: 85.4

Enquiry: Queued: O=C(O)CCc1c(/C=C2\C(=O)Nc3ccc(NS(=O)(=O)c4cc(F)cc(F)c4)cc32)[nH]c2c1C(=O)CCC2
Return: 10

Enquiry: Also check CNS(=O)(=O)c1ccc2c(c1)/C(=C/c1[nH]c3c(c1CCC(=O)O)C(=O)CCC3)C(=O)N2
Return: 29.1

Enquiry: And for O=C(O)CCc1c(/C=C2\C(=O)Nc3ccc([N+](=O)[O-])cc32)[nH]c2c1C(=O)CCC2 ?
Return: 19.9

Enquiry: CCOC(=O)CCc1c(/C=C2\C(=O)Nc3ccc(NC(=O)Nc4ccc(F)cc4F)cc32)[nH]c2c1C(=O)CCC2 , same question.
Return: 1.5

Enquiry: Same question, CCN(CC)CCNC(=O)CCc1c(/C=C2\C(=O)Nc3ccc(S(=O)(=O)Cc4c(Cl)cccc4Cl)cc32)[nH]c(C)c1C(C)=O this time
Return: 95.2

Enquiry: CCOC(=O)CCc1c(/C=C2\C(=O)Nc3ccc(Br)cc32)[nH]c2c1C(=O)CCC2 , same question.
Return: 30.9

Enquiry: Also CCOC(=O)CCc1c(/C=C2\C(=O)Nc3ccc(NS(=O)(=O)Cc4ccccc4)cc32)[nH]c2c1C(=O)CCC2 ?
Return: 21.1
